Kindly find below pIC50 information for Epithelial discoidin domain-containing receptor 1 (Homo sapiens) taken from the literature.
pIC50: −log10 of the molar value.

Query (compound): CN1CCN=C1NC(=O)c1cc(-n2ncc3nc(Nc4ccccc4Cl)ccc32)cs1 ; field requested: pIC50
> 6.70

Query (compound): CNC(=O)c1cc(-n2ncc3cc(Nc4c(Cl)cccc4OC)ncc32)cs1 ; field requested: pIC50
6.00 to 6.70

Query (compound): Cn1ccc(-c2cncc(NCc3cc(C(=O)Nc4cccc(OC(F)(F)F)c4)ccc3F)c2)n1 ; field requested: pIC50
> 8.00

Query (compound): COc1cc2c(Oc3ccc(NC(=O)C4(C(=O)Nc5ccc(F)cc5)CC4)cc3)ccnc2cc1OC(=O)N1CCCC1 ; field requested: pIC50
> 7.00

Query (compound): COc1cc2nccc(Oc3ccc(NC(=O)c4cc(S(C)(=O)=O)n(-c5ccc(F)cc5)n4)cc3F)c2cc1OC ; field requested: pIC50
> 6.30
